tested on: C. neoformans 2867E; assay: in vitro antifungal MIC, two-fold serial dilution; format: cell-based, Cryptococcus neoformans
Property: MIC (minimum inhibiting concentration) (µg/mL)

// below: answered molecules
{"columns": ["Molecule", "Target Desc", "Unit Of Measure", "MIC (minimum inhibiting concentration)"],
 "data": [
  ["CC(C)C(=O)OC1C(C)OC(OCC23CC4C(C)CCC4C4(C=O)CC2C=C(C(C)C)C43C(=O)O)C2OC12 (stereo not shown) [Example 59]", "C. neoformans 2867E", "µg/mL", 1.00],
  ["CC(C)C1=CC2CC3(C=O)C4CCC(C)C4CC2(COC2CC4=CCOC4C(C)O2)C13C(=O)O (stereo not shown) [Example 43]", "C. neoformans 2867E", "µg/mL", 2.00]
]}

P: CC(C)C1=CC2CC3(C=O)C4CCC(C)C4CC2(COC2CC4OCC(C)C4C(C)O2)C13C(=O)O (stereo not shown) [Example 16]
Q: CC(C)C1=CC2CC3(C=O)C4CCC(C)C4CC2(COC2CC4OCOC4C(C)O2)C13C(=O)[O-].[Na+] (stereo not shown) [Example 13]
Q: Please indicate which item has the smaller measured MIC (minimum inhibiting concentration): P versus Q Pick one and reply with its label.
A: Q
